experiment: Single ascending dose plasma pharmacokinetics (Part 1); format: in vivo, human; conditions: male, human, plasma, po, 48 mg; read-out: tmax
Quantity Name: Tmax (h)
Give your result in h as a bare value.

Query string: So what's the measured Tmax for this one? C=C[C@@H]1C[C@]1(NC(=O)[C@@H]1C[C@@H](Oc2cc(-c3csc(NC(=O)C(C)C)n3)nc3c(Br)c(OC)ccc23)CN1C(=O)[C@@H](NC(=O)OC1CCCC1)C(C)(C)C)C(=O)O [FDV, Faldaprevir]
Result string: 8

----------
experiment: Single ascending dose plasma pharmacokinetics (Part 1); format: in vivo, human; conditions: male, human, plasma, oral; range over single doses of 4–1,200 mg; read-out: gMean t1/2
Quantity Name: half-life

Query string: State the recorded half-life for this entry: C=C[C@@H]1C[C@]1(NC(=O)[C@@H]1C[C@@H](Oc2cc(-c3csc(NC(=O)C(C)C)n3)nc3c(Br)c(OC)ccc23)CN1C(=O)[C@@H](NC(=O)OC1CCCC1)C(C)(C)C)C(=O)O
Result string: 15.5 to 39.2 h

----------
assay: Single ascending dose plasma pharmacokinetics (Part 1); assay type: in vivo, human; conditions: male, human, plasma, po, 48 mg; read-out: Cmax
Quantity Name: Cmax (ng/mL)
Please reply with the bare figure in ng/mL and do not write the unit itself.

Query string: Reported Cmax, molecule C=C[C@@H]1C[C@]1(NC(=O)[C@@H]1C[C@@H](Oc2cc(-c3csc(NC(=O)C(C)C)n3)nc3c(Br)c(OC)ccc23)CN1C(=O)[C@@H](NC(=O)OC1CCCC1)C(C)(C)C)C(=O)O : ____
Result string: 86.6

----------
test: Single ascending dose plasma pharmacokinetics (Part 1); format: in vivo, human; conditions: male, human, plasma, po, 120 mg; read-out: tmax
Quantity Name: Tmax (h)
Record the value in h, omitting the unit from your answer.

Query string: What does the data say about its Tmax? Entry: C=C[C@@H]1C[C@]1(NC(=O)[C@@H]1C[C@@H](Oc2cc(-c3csc(NC(=O)C(C)C)n3)nc3c(Br)c(OC)ccc23)CN1C(=O)[C@@H](NC(=O)OC1CCCC1)C(C)(C)C)C(=O)O [FDV, Faldaprevir]
Result string: 7

----------
experiment: Single ascending dose plasma pharmacokinetics (Part 1); type: in vivo, human; conditions: male, human, plasma, po, 48 mg, FDV 48 mg single oral dose, fasted; gMean (gCV%); read-out: t½ (converted)
Quantity Name: half-life
Please append the unit to your numeric answer.

Query string: Quick one: half-life of C=C[C@@H]1C[C@]1(NC(=O)[C@@H]1C[C@@H](Oc2cc(-c3csc(NC(=O)C(C)C)n3)nc3c(Br)c(OC)ccc23)CN1C(=O)[C@@H](NC(=O)OC1CCCC1)C(C)(C)C)C(=O)O ?
Result string: 37.7 h

----------
experiment: Single ascending dose plasma pharmacokinetics (Part 1); type: in vivo, human; details: male, human, plasma, po, 480 mg, FDV 480 mg single oral dose, fasted; gMean (gCV%); read-out: t½ (converted)
Quantity Name: half-life (h)
Provide the reading as a plain figure in h.

Query string: Would you kindly share the measured half-life for C=C[C@@H]1C[C@]1(NC(=O)[C@@H]1C[C@@H](Oc2cc(-c3csc(NC(=O)C(C)C)n3)nc3c(Br)c(OC)ccc23)CN1C(=O)[C@@H](NC(=O)OC1CCCC1)C(C)(C)C)C(=O)O ?
Result string: 33.3
